# Protocol notes: qHTS of pediatric cancer cell lines to identify multiple opportunities for drug repurposing: Primary screen for Saos-2 cells (AID 1347097); further: nearly all actives have a fitted effect of over 40% in size
# Condition info: Saos-2 viability, CellTiter-Glo ATP luminescence, 48 h; series mostly up to 46 µM
Records with an inconclusive call do not appear. Active and inactive are the calls of the source. The call rests on the fitted dose curve; in most records, active means well fitted cell-killing curve with a large enough effect; inconclusive means small, poorly fitted or top-dose-only effect; inactive means no such curve, though single readings can be large or run the other way.
Use one of these outcomes when replying: true for active, false for inactive

[
  {
    "Molecule": "CN1CCN(c2c(F)cc3c(=O)c(C(=O)O)cn4c3c2SCC4)CC1",
    "Classification": "false"
  },
  {
    "Molecule": "CC(C)(Cc1c[nH]c2ccccc12)NCC(O)COc1ccccc1C#N (configuration not stated)",
    "Classification": "false"
  },
  {
    "Molecule": "CCN1/C(=C/C=C/c2sc3ccccc3[n+]2CC)Sc2ccccc21",
    "Classification": "true"
  },
  {
    "Molecule": "CC(=O)Nc1ncc([N+](=O)[O-])s1",
    "Classification": "false"
  },
  {
    "Molecule": "O=C(CN1CCN(Cc2ccc3c(c2)OCO3)CC1)N1c2ccccc2Sc2ccccc21",
    "Classification": "false"
  }
]

We now examine a further molecule.
Recorded call for Cl/C(=C\n1cncn1)c1ccc(Cl)cc1Cl ? false
